These entries and their values trace back to paper PMC13629022.

IC50: recorded values
- Test system: nitric oxide production by stimulated J774.A1 macrophages
- test-summary: Nitric oxide production by LPS + IFN-γ stimulated J774.A1 macrophages (nitrite, Griess method)
- Type: cell-based, murine
- experimental-context: Mus musculus, J774.A1, 24 h, read-out: IC50, half maximal inhibitory concentration, NO production, J774.A1 macrophages stimulated with LPS (500 ng/mL) + IFN-γ (5 ng/mL), 24 h, nitrite by Griess
Give your result in µM as a bare value.

COC1CC(OC2C(C)OC(OC3CCC4(C)C(CCC5(O)C4CC(OC(C)=O)C4(C)C(C(C)OC(=O)c6ccccc6)CCC54O)C3)CC2OC(C)=O)OC(C)C1OC1OC(C)C(O)C(OC)C1O (centres unmarked) [Compound 17]	46.3
COC1CC(OC2CCC3(C)C(CCC4(O)C3CC(OC(=O)C=Cc3ccccc3)C3(C)C(C(C)O)CCC43O)C2)OC(C)C1OC1CC(OC)C(OC2OC(C)C(O)C(OC)C2O)C(C)O1 (centres unmarked) [Compound 15]	33.7

Proceed to the following item.
Ask: # input compound: COC1CC(OC2CCC3(C)C(CCC4C3CC(OC(=O)C=Cc3ccccc3)C3(C)C(C(C)O)CCC43O)C2)OC(C)C1OC1CC(OC)C(OC2OC(C)C(O)C(OC)C2O)C(C)O1 (centres unmarked) [Compound 10] ; wanted: its IC50
Reply: 17.5
